Origin of the recorded values: paper PMC6503206

experiment: Solubility of celecoxib in oils and cosurfactants; format: physicochemical; conditions: medium-chain triglycerides (MCT oil), oil or lipid, thermodynamic from solid
outcome.measure: solubility at 24 h (mg/mL)
// return numeric value only (unit: mg/mL, not printed)

Challenge: Give the reported solubility at 24 h for this compound. `Cc1ccc(-c2cc(C(F)(F)F)nn2-c2ccc(S(N)(=O)=O)cc2)cc1`
Response given: 11.6

---

assay: Solubility of celecoxib in oils and cosurfactants; format: physicochemical; details: fish oil, oil or lipid, thermodynamic from solid
outcome.measure: solubility at 24 h (µg/mL)
// return numeric value only (unit: µg/mL, not printed)

Challenge: Give the reported solubility at 24 h for this compound. Cc1ccc(-c2cc(C(F)(F)F)nn2-c2ccc(S(N)(=O)=O)cc2)cc1 [celecoxib, Celecoxib]
Response given: 3250

---

assay: Solubility of celecoxib in oils and cosurfactants; format: physicochemical; details: oleic acid, oil or lipid, thermodynamic from solid
outcome.measure: solubility at 24 h (µg/mL)
// return numeric value only (unit: µg/mL, not printed)

Challenge: Give the reported solubility at 24 h for this compound. Cc1ccc(-c2cc(C(F)(F)F)nn2-c2ccc(S(N)(=O)=O)cc2)cc1 [celecoxib, Celecoxib]
Response given: 730

---

test: Solubility of celecoxib in oils and cosurfactants; assay type: physicochemical; details: PEG 400, organic solvent or mixture, thermodynamic from solid
outcome.measure: solubility at 24 h (mg/mL)
// return numeric value only (unit: mg/mL, not printed)

Challenge: Give the reported solubility at 24 h for this molecule. `Cc1ccc(-c2cc(C(F)(F)F)nn2-c2ccc(S(N)(=O)=O)cc2)cc1`
Response given: 433

---

experiment: Solubility of celecoxib in oils and cosurfactants; format: physicochemical; settings: ethanol, organic solvent or mixture, thermodynamic from solid
outcome.measure: solubility at 24 h (mg/mL)
// return numeric value only (unit: mg/mL, not printed)

Challenge: Give the reported solubility at 24 h for this compound. Cc1ccc(-c2cc(C(F)(F)F)nn2-c2ccc(S(N)(=O)=O)cc2)cc1 [celecoxib, Celecoxib]
Response given: 79.2

---

assay: Solubility of celecoxib in oils and cosurfactants; type: physicochemical; settings: glycerine, organic solvent or mixture, thermodynamic from solid
outcome.measure: solubility at 24 h (µg/mL)
// return numeric value only (unit: µg/mL, not printed)

Challenge: Give the reported solubility at 24 h for this molecule. Cc1ccc(-c2cc(C(F)(F)F)nn2-c2ccc(S(N)(=O)=O)cc2)cc1 [celecoxib, Celecoxib]
Response given: 420
